test: soluble on expression in E. coli; label from the status in PepcDB or PDB records
Measurement label: soluble on expression in E. coli

| Residue sequence | Experimental result |
| --- | --- |
| MGSDKIHHHHHHMEEIKFPTNESGLCMNEKGVPWEDLKIVQAIADSGSLAGAGRTLGISHATVFRRLGALESRLGVRLFERHRTGYVPTLAGDDLATTAARVALDIEAVERRLMGRDARLSGTLRVTTTDTLLMGMLSDELAGFQRTYPHIVLEVEVSNRTYDLSRRDADVAIRPTSAPPETLIGRQVGQIAQAVYVSRCHRETSGWVGPDPHLGYPVLERWMARQGVDAQCRYHVDSMLGMLAGVRSGMGRGVLPCYLADMADDLVRASEPLPELQTELWLLTHPDLRNTARVQALFAYLSDSLKARQASLLGTMAAS | not soluble |
| MGHHHHHHSHMHTPEVASPSPGDRCREKSSPRPQTRFPSWHRVGDGWRVSIGTARSGCCQVGPCQGSSPLSTLCLAVPAPRYSNMACTQQSGGTTMVTADAPRLCLVNVAEQNGRLDPEEGPLSWHLSLAT | not soluble |

----------
assay: soluble on expression in E. coli; label from the status in PepcDB or PDB records
Measurement label: soluble on expression in E. coli

| Residue sequence | Experimental result |
| --- | --- |
| MGSDKIHHHHHHMRKDKNGTQEPKAKYRVRNWAAYNAGLINRGNITMWIGDDALANMPDTEPTRGRSRLYSDALIQALLGLKTVFHLPLRALQGFAQSLRDLAFAELPVPNYTTVCRRAQALQVKLPVIHSDEPLHLVVDSTGAKVCGEGEWKVRQHGYSKRRTWRKVHLALDANTGQLRAALMTHQDVADGEVLPELLEQISADESIDTIGGDGAYDTQACYASITARGALPSIPPREGAVHWPTTTPGASRRNAALDAIAQGSRREWKQQSGYHRRSLAENAMYRLKTLTGPCLWARRTDTQATEVAVRVGVLNRMAELSRPQSVRIARDHEQRHHFVLTPDLCNNVHSSAERRQGRVSCAMHATI | not soluble |
| MAWVVNKQSTQEELANRFRALVEANEILQIPGAHDAMAALVARNTGFLALYLSGAAYTASKGLPDLGIVTSTEVAERARDLVRATDLPVLVDIDTGFGGVLNVARTAVEMVEAKVAAVQIEDQQLPKKCGHLNGKKLVTTEELVQKIKAIKEVAPSLYIVARTDARGVEGLDEAIERANAYVKAGADAIFPEALQSEEEFRLFNSKVNAPLLANMTEFGKTPYYSAEEFANMGFQMVIYPVTSLRVAAKAYENVFTLIKETGSQKDALSNMQTRSELYETISYHDFEELDTGIAKTVLSEDQ | not soluble |

----------
test: soluble on expression in E. coli; label from the status in PepcDB or PDB records
Measurement label: soluble on expression in E. coli

| Residue sequence | Experimental result |
| --- | --- |
| MSLKTLLFDVDDTLLDFKLAEKKALHALFEEENVPFTSEVESTYHRINQGLWRSFEEGKITKDVLLDTRFGLLFDAFNREVDSVKMGENYREYLSQGHDLLGNSQRILEKLAPHYDLYIVTNGVAKTQYRRLEDSKLMPYFKDIFVSEEVGYQKPMKEYFDFVFERIPNFSREKTMIIGDSLHSDIQGGQQAKIQTVWLNPTSAPATPTIQPNYTIQQLDELLPILGHEGHHHHHH | soluble |
| GPGSMSHVKAFDPAAQARCDPYYKRNHMGHVVCTLCDVCCSDDNNFIKHLAGKTHSLQLERLERSANREKRLAEEEELNKEAMRRAEQEKATRELLLQQTSAPHASSVTSFAPFGRPEFHYCTEHDPELYQTKVWLEFYFPQAVEGARPLHRWRSAREQEVEKPPNDDVVYLLVACEGYMTVGLKFPSKLPRTSSGLTSWGGYGNAGSDEEKGRYRCSWDPVKKLYELFFIIG | soluble |
| PRAAGHSEEVLEREASFSLTTIDGEVISLNNVGGDVVILWFMAAWCPSCVYMADLLDRLTEKYREISVIAIDFWTAEALKALGLNKPGYPPPDTPEMFRKFIANYGDPSWIMVMDDGSLVEKFNVRSIDYIVIMDKSSNVLYAGTTPSLGELESVIKSVQGG | soluble |
